# Test system: Human cervical cancer cells (HeLa S3)
# Method Summary: Effect by combined use of drugs in cells (docetaxel), WST-8 method
# Format: cell-based
# Experimental Parameters: Homo sapiens, HeLa S3, 72 h, compound 0.1 μM alone, HeLa S3, three days; read-out: Cell growth inhibitory effect by sole administration of the compound of Example (%)
Parameter: inhibition at 0.1 µM

Compound | Measured Target | Parameter | Measured
O=C(O)[C@]1(Cc2cccc(Nc3nccs3)n2)CC[C@@H](S(=O)(=O)c2cccc(Cl)c2Cl)CC1 | Human cervical cancer cells (HeLa S3) | inhibition at 0.1 µM | 6.3%
O=C(O)[C@]1(Cc2cccc(Nc3nccs3)n2)CC[C@@H](Sc2cccc(Cl)c2Cl)CC1 | Human cervical cancer cells (HeLa S3) | inhibition at 0.1 µM | 28.3%
O=c1[nH]nc([C@]2(Cc3cccc(Nc4cc[nH]n4)n3)CC[C@@H](S(=O)(=O)c3cccc(Cl)c3Cl)CC2)o1 | Human cervical cancer cells (HeLa S3) | inhibition at 0.1 µM | 2.6%
Fc1c(Cl)cccc1O[C@H]1CC[C@](Cc2cccc(Nc3cc[nH]n3)n2)(c2n[nH]c(=S)o2)CC1 | Human cervical cancer cells (HeLa S3) | inhibition at 0.1 µM | 0.5%
O=c1[nH]nc([C@]2(Cc3cccc(Nc4cc[nH]n4)n3)CC[C@@H]([S+]([O-])c3cccc(Cl)c3Cl)CC2)o1 (some centres unmarked) | Human cervical cancer cells (HeLa S3) | inhibition at 0.1 µM | 42.7%
O=c1[nH]nc([C@]2(Cc3cccc(Nc4cc[nH]n4)n3)CC[C@@H](Sc3cccc(Cl)c3Cl)CC2)o1 | Human cervical cancer cells (HeLa S3) | inhibition at 0.1 µM | 3.9%
O=c1[nH]nc([C@]2(Cc3cccc(Nc4cc[nH]n4)n3)CC[C@@H](Oc3cccc(Cl)c3F)CC2)o1 | Human cervical cancer cells (HeLa S3) | inhibition at 0.1 µM | 3.7%
CONC(=O)[C@]1(Cc2cccc(Nc3nccs3)n2)CC[C@@H](Oc2cccc(Cl)c2F)CC1 | Human cervical cancer cells (HeLa S3) | inhibition at 0.1 µM | 7.4%

---

# Measured Target: GST-tagged human Aurora B(AurB)/His-tagged human INCENP complex proteins (Homo sapiens, UniProt Q96GD4)
# Construct: GST; purchased Carna Biosciences, Inc
# Sequence (Q96GD4 whole entry): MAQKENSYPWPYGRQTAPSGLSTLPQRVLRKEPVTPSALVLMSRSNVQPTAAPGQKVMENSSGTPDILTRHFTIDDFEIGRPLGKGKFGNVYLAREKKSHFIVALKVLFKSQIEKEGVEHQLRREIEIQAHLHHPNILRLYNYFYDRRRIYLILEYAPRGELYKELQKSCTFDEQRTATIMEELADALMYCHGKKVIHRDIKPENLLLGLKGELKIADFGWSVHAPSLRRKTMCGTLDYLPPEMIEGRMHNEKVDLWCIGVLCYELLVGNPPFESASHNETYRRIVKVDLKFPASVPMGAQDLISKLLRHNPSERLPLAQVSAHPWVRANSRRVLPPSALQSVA
# Sequence (Q9NQS7 803-916 partner limits assumed): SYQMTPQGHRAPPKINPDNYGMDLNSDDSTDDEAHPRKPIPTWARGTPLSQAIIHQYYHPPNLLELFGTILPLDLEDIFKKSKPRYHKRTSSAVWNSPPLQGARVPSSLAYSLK
# Method Summary: Aurora B inhibitory activity (Method A, IMAP assay kit)
# Type: biochemical
# Experimental Parameters: 40 μM ATP, 25° C., 45 minutes

Molecule | Value Units | Value Prefix | IC50
O=C(O)[C@]1(Cc2cccc(Nc3nccs3)n2)CC[C@@H]([S+]([O-])c2cccc(Cl)c2Cl)CC1 (stereo partly drawn) | nM | = | 53
O=c1[nH]nc([C@]2(Cc3cccc(Nc4cc[nH]n4)n3)CC[C@@H](Sc3cccc(Cl)c3Cl)CC2)o1 | nM | = | 690
Fc1c(Cl)cccc1O[C@H]1CC[C@](Cc2cccc(Nc3cc[nH]n3)n2)(c2n[nH]c(=S)o2)CC1 | nM | = | 130
Cl.O=C(O)[C@]1(Cc2cccc(Nc3nccs3)n2)CC[C@@H](Oc2cccc(F)c2F)CC1 [Example 3, hydrochloride] | nM | = | 59
O=C(O)[C@]1(Cc2cccc(Nc3nccs3)n2)CC[C@@H](S(=O)(=O)c2cccc(Cl)c2Cl)CC1 | nM | = | 70
O=C(O)[C@]1(Cc2cccc(Nc3cc[nH]n3)n2)CC[C@@H](Oc2cccc(Cl)c2F)CC1 | nM | = | 200
Fc1c(O[C@H]2CC[C@](Cc3cccc(Nc4cc[nH]n4)n3)(c3nnco3)CC2)cccc1C(F)(F)F | nM | > | 1000
CC(=O)N[C@]1(Cc2cccc(Nc3nccs3)n2)CC[C@@H](Oc2cccc(Cl)c2F)CC1 | nM | = | 320
CONC(=O)[C@]1(Cc2cccc(Nc3nccs3)n2)CC[C@@H](Oc2cccc(Cl)c2F)CC1 | nM | = | 200

Every entry's value here was drawn from patent US20100016335A1.
